Molecular target: Voltage-gated potassium channel subunit beta-2 (Rattus norvegicus)
Test: enhancers of rat Kvbeta2 NADPH turnover – biochemical, NADPH fluorescence, primary screen (AID 623);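 note: fluorescence intensity change per second fitted from 20 to 320 s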
Settings: Recombinant KvBeta, NADPH fluorescence decrease slope, 10 min; at 10 µM; stronger effect = lower value
measure: NADPH fluorescence slope
// response body must contain only the number

Some solved cases for reference:
In plain terms, CCn1c(SCC(=O)Nc2nnc(C)s2)nnc1-c1ccncc1 has a documented NADPH fluorescence slope of -5.1e-05

In plain terms, CCN(CC)CCCN(Cc1cc2cc(OC)ccc2[nH]c1=O)C(=O)Nc1ccccc1 has a documented NADPH fluorescence slope of -5.9e-06

In plain terms, CC(C)(C)Nc1nc(OCC(F)(F)F)nc(OCC(F)(F)F)n1 has a documented NADPH fluorescence slope of -0.000395

In plain terms, COc1ccc(CNC(=O)Cn2nc(C(F)(F)F)c3c2CCC3)cc1 has a documented NADPH fluorescence slope of -9.3e-05

In plain terms, CC1(C)CC(=O)c2cnc(NC(=O)CSc3nc4ccccc4o3)nc2C1 has a documented NADPH fluorescence slope of -1.5e-05

Others:
In plain terms, CC(NC(=O)CSc1n[nH]c(=O)n1C1CC1)C12CC3CC(CC(C3)C1)C2 (stereo unspecified) has a documented NADPH fluorescence slope of 8.6e-05

In plain terms, C/C(N)=C(\C#N)C(=O)NCCc1ccccn1 has a documented NADPH fluorescence slope of 2e-05

In plain terms, Cc1nc2ccc(S(=O)(=O)NCC(=O)O)cc2s1 has a documented NADPH fluorescence slope of 4.8e-05

In plain terms, CCN(CC)CCNC(=O)C1CCN(S(=O)(=O)N2CCCCC2)CC1 has a documented NADPH fluorescence slope of 2.2e-05

In plain terms, CCOc1ccc(C(c2nnnn2Cc2ccccc2)N2CCN(C(=O)c3ccco3)CC2)cc1 (stereo unspecified) has a documented NADPH fluorescence slope of -2.2e-06

In plain terms, c1ccc2c(c1)CCCC2C1=NCCN1 (stereo unspecified) has a documented NADPH fluorescence slope of -5e-05

----------
compounds and their reported NADPH fluorescence slope
Target: Voltage-gated potassium channel subunit beta-2 (Rattus norvegicus) (UniProt P62483)
Sequence (P62483 whole entry, looked up): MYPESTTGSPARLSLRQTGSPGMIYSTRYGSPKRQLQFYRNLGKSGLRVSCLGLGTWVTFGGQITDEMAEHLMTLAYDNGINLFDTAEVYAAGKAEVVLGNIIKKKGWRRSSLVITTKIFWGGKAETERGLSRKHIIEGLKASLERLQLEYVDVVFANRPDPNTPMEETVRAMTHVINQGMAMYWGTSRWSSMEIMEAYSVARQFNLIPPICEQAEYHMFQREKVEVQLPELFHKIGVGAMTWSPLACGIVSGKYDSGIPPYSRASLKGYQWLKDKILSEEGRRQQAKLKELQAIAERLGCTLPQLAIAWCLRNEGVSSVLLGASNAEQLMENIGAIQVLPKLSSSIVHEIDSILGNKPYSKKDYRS
Assay: enhancers of rat Kvbeta2 NADPH turnover – biochemical, NADPH fluorescence, primary screen (AID 623);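 note: fluorescence intensity change per second fitted from 20 to 320 s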
Details: Recombinant KvBeta, NADPH fluorescence decrease slope, 10 min; at 10 µM; stronger effect = lower value
// response body must contain only the number

In plain terms, CC(C)=CCCC(C)NC(=O)NC1CCCCC1 (stereo not given) has a documented NADPH fluorescence slope of -2.7e-05

In plain terms, COc1ccccc1S(=O)(=O)n1cc(Cc2ccccc2)c(N)n1 has a documented NADPH fluorescence slope of -1.1e-05

In plain terms, CCCCn1nnnc1SCC(=O)N1CCN(C(=O)c2ccco2)CC1 has a documented NADPH fluorescence slope of -3e-05

In plain terms, CC1(C)Cc2noc(N)c2C(C)(C)N1OC(=O)c1cccs1 has a documented NADPH fluorescence slope of 1.8e-05

In plain terms, Cc1ccc(Nc2cc(C)nc3nnnn23)cc1 has a documented NADPH fluorescence slope of -6.9e-05

In plain terms, CC(C)(C#N)C(C)(C)c1nn[nH]n1 has a documented NADPH fluorescence slope of -2.9e-05

In plain terms, Cc1cc(C2C(C#N)=C(N)SC(N)=C2C#N)c(C)s1 has a documented NADPH fluorescence slope of -8.5e-05

In plain terms, Cc1ccccc1NC(=O)C1CCC(C)(C(=O)O)C1(C)C (stereo not given) has a documented NADPH fluorescence slope of 1.1e-05

Others:
In plain terms, COc1ccc(-c2cc3nc(C)c(CCC(=O)NCc4ccco4)c(C)n3n2)c(OC)c1 has a documented NADPH fluorescence slope of -0.00019

In plain terms, O=C(NCc1ccccn1)c1ccc2nc(-c3ccco3)c(-c3ccco3)nc2c1 has a documented NADPH fluorescence slope of -2.5e-05

In plain terms, COc1ccc2nc(NC(=O)C(NS(=O)(=O)c3cccs3)C(C)C)sc2c1 (stereo not given) has a documented NADPH fluorescence slope of 1.5e-05
